Tested on: Aβ40
Assay: In vitro BACE cell-based assay (Aβ40 sandwich ELISA, cells stably expressing APP)
Details: Homo sapiens, HEK293, average IC50; read-out: HEK cell assay
measurement type: IC50 (nM)

molecule=COc1cc2c(cn1)Oc1ccc(-c3ccc(F)c(F)c3)cc1[C@@]21COCC(N)=N1 value_units=nM obs_value=106
molecule=NC1=N[C@@]2(COC1)c1cc(-c3cc(F)ccc3F)ccc1Oc1ncc(-c3ccnc(F)c3)cc12 value_units=nM obs_value=4.4
molecule="NC1=N[C@@]2(COC1)c1cc(-c3cccnc3F)ccc1Oc1c2cc(N2CCOCC2)nc1F [Example 58, 2,2,2-trifluoroacetate]" value_units=nM obs_value=0.7

I = CC(C)(F)COc1cc(F)c2c(c1)[C@]1(CCSC(N)=N1)c1cc(-c3cccnc3F)ccc1O2
II = CC(C)(C)C#Cc1ccc2c(c1)[C@@]1(COCC(N)=N1)c1cc(-c3ccnc(F)c3)cnc1O2
*Q* Returns the identifier with the smallest measured IC50 among I and II . Pick one; state its label.
*A* I
(I: 11.2 nM, II: 24.8 nM)

I = CC(C)(F)COc1cc(F)c2c(c1)[C@]1(CCOC(N)=N1)c1cc(-c3cccnc3)ccc1O2
II = NC1=N[C@@]2(COC1)c1cc(-c3cccnc3F)ccc1Oc1c2cc(Cl)nc1F
*Q* Of I and II , which carries the smaller reported IC50 figure? Reply briefly: the label of your chosen item.
*A* I

---

System: Aβ40
Assay: In vitro BACE cell-based assay (Aβ40 sandwich ELISA, cells stably expressing APP)
Conditions: Homo sapiens, HEK293, average IC50; read-out: HEK cell assay
pIC50: −log10 of the molar value.
measurement type: pIC50

# annotated cases, reported pIC50 shown
molecule="N#Cc1cccc(-c2ccc3c(c2)[C@@]2(CCOC(N)=N2)c2cc(-c4ccnc(F)c4)nc(F)c2O3)c1 [compound 225]" obs_value=8.52
molecule="NC1=N[C@]2(CCS1)c1cc(-c3cccnc3F)ccc1Oc1cnc(-c3ccnc(F)c3)cc12 [compound 189]" obs_value=5.48

I = N#Cc1cccc(-c2ccc3c(c2)[C@]2(CCOC(N)=N2)c2cc(C4=CCOCC4)nc(F)c2O3)c1 [compound 233]
II = NC1=N[C@@]2(CCO1)c1cc(-c3cccnc3F)ccc1Oc1c(F)cc(C3=CCOCC3)cc12 [Example 163]
*Q* From the recorded data, which exceeds the other in pIC50: I or II ? // output: label of the selected item
*A* II
(II: 8.22, I: 6.96)

---

pIC50: −log10 of the molar value.
BACE (Homo sapiens, UniProt P56817) pIC50 data
Sequence (P56817 46-501, species assumed): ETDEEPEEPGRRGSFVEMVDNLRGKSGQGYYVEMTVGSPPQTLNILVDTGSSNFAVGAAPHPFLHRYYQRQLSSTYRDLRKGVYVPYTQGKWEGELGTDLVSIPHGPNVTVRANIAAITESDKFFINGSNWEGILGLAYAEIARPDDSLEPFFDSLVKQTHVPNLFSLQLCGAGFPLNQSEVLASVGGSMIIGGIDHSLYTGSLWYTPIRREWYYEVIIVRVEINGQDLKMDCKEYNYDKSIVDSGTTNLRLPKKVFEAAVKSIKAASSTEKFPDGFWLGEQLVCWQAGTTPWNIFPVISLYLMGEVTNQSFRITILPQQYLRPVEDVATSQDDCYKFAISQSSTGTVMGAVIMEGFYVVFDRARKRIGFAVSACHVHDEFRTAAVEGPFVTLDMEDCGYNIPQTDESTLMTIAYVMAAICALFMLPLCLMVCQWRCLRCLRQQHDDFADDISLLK
measurement type: pIC50

compound=CC1(C#Cc2cnc3c(c2)[C@@]2(COCC(N)=N2)c2cc(-c4cccnc4F)ccc2O3)COC1 obs_value=6.48

a = COc1cc(F)c2c(c1)[C@@]1(CCSC(N)=N1)c1cc(-c3cccnc3F)ccc1O2 [compound 186]
b = NC1=N[C@@]2(CCO1)c1cc(-c3cccnc3F)ccc1Oc1c(F)cc(-c3cccnc3)cc12
c = COc1cc2c(cn1)Oc1ccc(-c3ccc(F)c(F)c3)cc1[C@@]21COCC(N)=N1
*Q* Exam item: list the entries in increasing order of pIC50. Write the labels in rank order as requested.
*A* a, c, b
(a: 5.02, c: 7.51, b: 8.46)

---

System: Aβ40
Test: In vitro BACE cell-based assay (Aβ40 sandwich ELISA, cells stably expressing APP)
Details: Homo sapiens, HEK293, average IC50, cell assay, HEK cells
pIC50: −log10 of the molar value.
measurement type: pIC50

smiles_entry=CC1(COc2cc(F)c3c(c2)[C@@]2(CCOC(N)=N2)c2cc(-c4cccnc4)ccc2O3)COC1 target_or_system=Aβ40 obs_value=6.48
smiles_entry=NC1=N[C@@]2(COC1)c1cc(-c3cnccc3F)ccc1Oc1cnc(-c3ccnc(F)c3)cc12 target_or_system=Aβ40 obs_value=9.22
smiles_entry=CC#Cc1cncc(-c2ccc3c(c2)[C@@]2(COCC(N)=N2)c2cc(C4=CCCOC4)cc(F)c2O3)c1 target_or_system=Aβ40 obs_value=8.82

1 = NC1=N[C@@]2(COC1)c1cc(-c3cccnc3F)ccc1Oc1cnc(-c3ccnc(F)c3)cc12
2 = CC(C)(C)COc1cc2c(cn1)Oc1ccc(-c3cccnc3)cc1[C@@]21COCC(N)=N1
*Q* Min pIC50? 1 | 2 Which one? Tell me its label.
*A* 1

---

The next entries give measured IC50 for BACE (Homo sapiens).
measurement type: IC50 (nM)

Reference set, count: 6
compound=NC1=N[C@]2(CCS1)c1cc(-c3cccnc3F)ccc1Oc1ncc(C3=CCCOC3)cc12 obs_value=1040
compound="CC1(C#Cc2cc(F)c3c(c2)[C@]2(CCOC(N)=N2)c2cc(-c4cccnc4F)ccc2O3)COC1 [Example 17A]" obs_value=3.3
compound="NC1=NC2(CCO1)c1cc(I)ccc1Oc1ncc(Br)cc12 (centres unmarked)" obs_value=16000
compound=NC1=N[C@]2(COC1)c1cc(-c3ccnc(F)c3)ccc1Oc1ccc(-c3cccnc3F)cc12 obs_value=1.6
compound=NC1=N[C@@]2(COC1)c1cc(-c3cccnc3F)ccc1Oc1cnc(-c3ccc(F)c(F)c3)cc12 obs_value=0.3
compound=CC1(COc2cc(F)c3c(c2)[C@@]2(CCOC(N)=N2)c2cc(-c4cccnc4F)ccc2O3)COC1 obs_value=525

A = NC1=N[C@@]2(CCO1)c1cc(-c3cccnc3F)ccc1Oc1cnc(C3=CCCOC3)cc12
B = NC1=N[C@@]2(CCS1)c1cc(-c3cccnc3F)ccc1Oc1ncc(C3=CCCOC3)cc12
*Q* Of A and B , which one carries the higher reported IC50? # reply format: chosen label
*A* B
(B: 4 nM, A: 2 nM)

---

Test system: Aβ40
Experiment: In vitro BACE cell-based assay (Aβ40 sandwich ELISA, cells stably expressing APP)
Conditions: Homo sapiens, HEK293, average IC50; read-out: HEK cell assay
measurement type: IC50 (nM)

Below are worked cases with known answers.
compound=NC1=N[C@]2(CCO1)c1cc(-c3cccnc3F)ccc1Oc1ncc(-c3ccnc(F)c3)cc12 obs_value=3560
compound="COc1nc(-c2cccnc2)cc2c1Oc1ccc(-c3cccnc3F)cc1C21CCOC(N)=N1 (stereo not drawn)" obs_value=119
compound=NC1=N[C@@]2(CCO1)c1cc(-c3cncc(F)c3)ccc1Oc1c2cc(-c2ccnc(F)c2)nc1F obs_value=1.6
compound=NC1=N[C@@]2(CCS1)c1cc(-c3cccnc3F)ccc1Oc1c(F)cc(C3=CCOCC3)cc12 obs_value=12.3
compound=NC1=N[C@]2(CCO1)c1cc(-c3cncc(F)c3)ccc1Oc1c2cc(C2=CCOCC2)nc1F obs_value=127

P = COc1cc(F)c2c(c1)[C@]1(CCOC(N)=N1)c1cc(-c3cccnc3F)ccc1O2
Q = NC1=N[C@@]2(CCO1)c1cc(-c3cccnc3F)ccc1Oc1ncc(-c3ccnc(F)c3)cc12
R = NC1=N[C@@]2(CO[C@H]1C1CCCCC1)c1cc(-c3cccnc3F)ccc1Oc1cnc(Cl)cc12 (racemic) [Example 56A]
S = CCOc1cc2c(cn1)Oc1ccc(-c3cncc(Cl)c3)cc1[C@@]21COCC(N)=N1
*Q* Order these by IC50, descending, and give the full ranking. The labels, placed in the requested order, form the answer.
*A* R, P, Q, S

I = NC1=N[C@]2(COC1)c1cc(-c3cccnc3F)ccc1Oc1c2cc(Cl)nc1F
II = N#Cc1cccc(-c2ccc3c(c2)[C@@]2(CCOC(N)=N2)c2cc(C4=CCCOC4)nc(F)c2O3)c1
III = NC1=N[C@@]2(CCS1)c1cc(-c3cccnc3F)ccc1Oc1c(F)cc(C3=CCCOC3)cc12
IV = CC1(C#Cc2cc(F)c3c(c2)[C@]2(CCOC(N)=N2)c2cc(-c4cccnc4F)ccc2O3)COC1 [Example 17A]
*Q* Please produce an ascending ranking of these compounds based on IC50. Reply format: the labels, ordered as requested.
*A* II, IV, III, I
(II: 1.4 nM, IV: 2.6 nM, III: 9.7 nM, I: 3150 nM)

---

Test system: Aβ40
Experiment: In vitro BACE cell-based assay (Aβ40 sandwich ELISA, cells stably expressing APP)
Details: Homo sapiens, HEK293, average IC50; read-out: HEK cell assay
measurement type: IC50 (nM)

Below, each entry is followed by its recorded IC50 result.
molecule="NC1=N[C@]2(CCO1)c1cc(-c3cccnc3F)ccc1Oc1c(F)cc(-c3ccncc3)cc12 [compound 165]" value_units=nM obs_value=248
molecule="NC1=N[C@@]2(CCO1)c1cc(-c3cncc(F)c3)ccc1Oc1c2cc(C2=CCOCC2)nc1F [compound 228]" value_units=nM obs_value=0.7

1 = CC1(COc2cc(F)c3c(c2)[C@@]2(CCSC(N)=N2)c2cc(-c4cccnc4F)ccc2O3)COC1 [compound 198]
2 = CC(C)(C)C#Cc1cnc2c(c1)[C@]1(COCC(N)=N1)c1cc(-c3cccnc3)ccc1O2 [Example 52]
*Q* Form: Entry with minimum IC50 (choose one): 1 / 2 Answer = label.
*A* 2
